biological target: tau 1N4R (UniProt P10636-7 1-412); experiment: fluorescence anisotropy; 10 mM NaCl; Hill fit; EMSA: 20 nM DNA or nucleosome, 20 mM HEPES pH 7.2, 10 mM NaCl (or 150), 0.5 mM TCEP, 0.1% Tween-20, 5% sucrose, room temperature 20 min; FA: 10 nM DNA, same buffer with 10 mM NaCl, 0.01% NP-40 substitute, room temperature 10 min; details: protein: recombinant; tags: none stated; label: 5' 6-FAM on strand 1; blunt
Sequence (P10636 other isoform, or with tags, fused parts or gaps): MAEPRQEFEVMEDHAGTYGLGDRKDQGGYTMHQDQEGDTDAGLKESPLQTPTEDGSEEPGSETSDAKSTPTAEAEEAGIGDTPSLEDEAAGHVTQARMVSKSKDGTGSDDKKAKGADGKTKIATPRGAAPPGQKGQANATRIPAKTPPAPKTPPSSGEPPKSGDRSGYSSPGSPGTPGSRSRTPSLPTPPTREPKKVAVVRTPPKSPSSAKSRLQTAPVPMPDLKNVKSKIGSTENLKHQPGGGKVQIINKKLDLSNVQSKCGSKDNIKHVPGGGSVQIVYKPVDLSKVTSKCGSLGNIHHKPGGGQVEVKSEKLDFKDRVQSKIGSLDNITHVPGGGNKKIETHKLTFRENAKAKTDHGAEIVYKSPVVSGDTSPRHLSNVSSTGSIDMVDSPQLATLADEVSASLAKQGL
readout name: pKd
As a rule, pKd stands for the negative log10 of the concentration, concentration in M.

Let me know recorded pKd for 22 bp DNA (dsDNA) DNA 1: ATTTAGAAATGTCCACTGTAGG DNA 2: CCTACAGTGGACATTTCTAAAT , thanks.
8.20

src = paper PMC10907630
